The compounds below have reported Ki for Adenosine receptor A2a (Homo sapiens, UniProt P29274).

smiles | u | Ki
CC(C)CCn1cc2c(nc(NC(=O)CCCNC(=O)OC(C)(C)C)n3nc(-c4ccco4)nc23)n1 | µM | 0.297
O=C(Cc1ccc(Cl)cc1)Nc1nc2nn(CCCc3ccccc3)cc2c2nc(-c3ccco3)nn12 | µM | 0.0899
Nc1nc2c(cnn2CCCc2ccc3c(c2S(=O)(=O)O)OCO3)c2nc(-c3ccco3)nn12 | µM | 0.075
Nc1nc2nn(CCc3c(Br)cc(Br)cc3Br)cc2c2nc(-c3ccco3)nn12 | µM | 0.348
O=C(Nc1nc2nn(CCCc3ccccc3)cc2c2nc(-c3ccco3)nn12)C(c1ccccc1)c1ccccc1 | µM | 0.326
CC(C)CCn1cc2c(nc(NC(=O)Cc3cccc(Cl)c3)n3nc(-c4ccco4)nc23)n1 | µM | 0.00186
CCn1cc2c(nc(NC(=O)Cc3ccc(-c4ccccc4)cc3)n3nc(-c4ccco4)nc23)n1 | µM | 0.0709
CC(C)CCn1cc2c(nc(NC(=O)COc3ccc(Cl)cc3)n3nc(-c4ccco4)nc23)n1 | µM | 0.0161
C=Cn1cc2c(nc(NC(=O)Nc3ccc(OC)cc3)n3nc(-c4ccco4)nc23)n1 | µM | 0.176
CCn1cc2c(nc(NC(=O)Cc3ccsc3)n3nc(-c4ccco4)nc23)n1 | µM | 0.023
CCCCn1cc2c(nc(NC(=O)Cc3cccs3)n3nc(-c4ccco4)nc23)n1 | µM | 0.00415
Cn1cc2c(nc(NC(=O)Cc3ccc(-c4ccccc4)cc3)n3nc(-c4ccco4)nc23)n1 | µM | 0.193
CCCCn1cc2c(nc(NC(=O)Cc3ccc(-c4ccccc4)cc3)n3nc(-c4ccco4)nc23)n1 | µM | 0.0396
O=C(Cc1ccc2ccccc2c1)Nc1nc2nn(CCc3ccccc3)cc2c2nc(-c3ccco3)nn12 | µM | 0.0421
O=C(Nc1cccc(Cl)c1)Nc1nc2nn(CCc3c(Br)cc(Br)cc3Br)cc2c2nc(-c3ccco3)nn12 | µM | 3.6
CCCn1cc2c(nc(NC(=O)Cc3ccc(-c4ccccc4)cc3)n3nc(-c4ccco4)nc23)n1 | µM | 0.0525
Cn1cc2c(nc(NC(=O)Cc3cccs3)n3nc(-c4ccco4)nc23)n1 | µM | 0.056
O=C(Cc1ccc2ccccc2c1)Nc1nc2nn(CCCc3ccccc3)cc2c2nc(-c3ccco3)nn12 | µM | 0.0736
Cn1cc2c(nc(NC(=O)Cc3cccc4ccccc34)n3nc(-c4ccco4)nc23)n1 | µM | 0.0805
COc1ccc(CC(=O)Nc2nc3nn(C)cc3c3nc(-c4ccco4)nn23)cc1 | µM | 0.0625
CCCCn1cc2c(nc(NC(=O)C(c3ccccc3)c3ccccc3)n3nc(-c4ccco4)nc23)n1 | µM | 0.114
COc1ccc(NC(=O)Nc2nc3nn(CCc4c(Br)cc(Br)cc4Br)cc3c3nc(-c4ccco4)nn23)cc1 | µM | 2.03
CCCn1cc2c(nc(NC(=O)Cc3ccc4ccccc4c3)n3nc(-c4ccco4)nc23)n1 | µM | 0.00799
CC(C)CCn1cc2c(nc(NC(=O)Cc3ccc(Cl)cc3)n3nc(-c4ccco4)nc23)n1 | µM | 0.00275
O=C(Cc1c(Cl)cccc1Cl)Nc1nc2nn(CCCc3ccccc3)cc2c2nc(-c3ccco3)nn12 | µM | 0.186
O=C(Cc1cccc(Cl)c1)Nc1nc2nn(CCCc3ccccc3)cc2c2nc(-c3ccco3)nn12 | µM | 0.182
Cn1cc2c(nc(NC(=O)Cc3cccc(Cl)c3)n3nc(-c4ccco4)nc23)n1 | µM | 0.0305
CCOC(=O)[C@H]1Oc2ccc(CCCn3ncc4c3nc(N)n3nc(-c5ccco5)nc43)cc2O1 | µM | 0.00548
CCCCn1cc2c(nc(NC(=O)Cc3ccsc3)n3nc(-c4ccco4)nc23)n1 | µM | 0.00313
CCCCn1cc2c(nc(NC(=O)Cc3ccc4ccccc4c3)n3nc(-c4ccco4)nc23)n1 | µM | 0.00794
CCOC(=O)c1ccc(CCn2ncc3c2nc(N)n2nc(-c4ccco4)nc32)cc1 | µM | 0.004
Cn1cc2c(nc(NC(=O)Cc3ccc4ccccc4c3)n3nc(-c4ccco4)nc23)n1 | µM | 0.0775
CC(C)CCn1cc2c(nc(NC(=O)Cc3c(Cl)cccc3Cl)n3nc(-c4ccco4)nc23)n1 | µM | 0.0187
CC(C)CCn1cc2c(nc(NC(=O)Cc3ccsc3)n3nc(-c4ccco4)nc23)n1 | µM | 0.00388
CSc1c2c(nc(NC(=O)Cc3ccc(OCC(C)C)cc3)n3nc(-c4ccco4)nc23)nn1C | µM | 0.05
CC(C)(C)OC(=O)NCCCC(=O)Nc1nc2nn(CCc3ccccc3)cc2c2nc(-c3ccco3)nn12 | µM | 0.288
